# TEST_SUMMARY: ATG_PPRE_CIS: Attagene CIS-FACTORIAL HepG2 Assay for human Peroxisome Proliferator-activated Response Element (PPRE) (AID 2282958)
# MEASUREMENT_CONDITIONS: HepG2 PPRE cis-element reporter, Attagene transcription factor profiling; actives raise or lower the signal
The source made the active and inactive calls. The calls were made as follows: active = hit-call score of the fitted dose curve at least 0.9, where 1 is the maximum; inactive = score below 0.9.
API: response.call in true (1) for active, false (0) for inactive

Worked cases, answers included:
COMPOUND	LABEL_CLASS
CC(C)(C)OOC(C)(C)C	false (0)
Cc1ccc(C(=O)Cl)cc1	false (0)
CC(O)C(F)(F)C(F)(F)F (stereo not drawn)	false (0)
Cc1ccc(N)cc1N	false (0)
CC(C)Nc1ccc(Nc2ccccc2)cc1	false (0)
ClC(Cl)c1ccccc1	false (0)

Any idea what this test logged for `c1ccc2c(c1)Nc1ccccc1S2` ? false (0)

Kindly provide the recorded test outcome for the following compound: `N#Cc1c(-c2ccc(Cl)cc2)[nH]c(C(F)(F)F)c1Br` false (0)

Query: recorded result category for ClC1=C(Cl)C2(Cl)C3C(Cl)C(Cl)CC3C1(Cl)C2(Cl)Cl (stereo not drawn) in this test false (0)

For OCC1CO1 (stereo not drawn) , which call appears in the assay record? false (0)

Outcome? FC(F)(F)C(F)(C(F)(F)F)C(F)(F)C(F)(F)CC1CO1 (stereo not drawn) false (0)

Name the outcome recorded for `FC(F)(F)c1ccc(Cl)cc1` in the assay. false (0)

Tell me the assay call for `CCOS(=O)(=O)OCC` please. false (0)

What is the recorded call for this compound in the test? `O=S(=O)(F)C(F)(F)C(F)(F)C(F)(F)C(F)(F)C(F)(F)C(F)(F)C(F)(F)C(F)(F)F` false (0)

I'd appreciate the recorded outcome for `O=[N+]([O-])c1cc(Cl)ccc1Cl` from this test. false (0)

Could you please tell me the result logged for `CCNc1nc(Cl)nc(NC(C)(C)C)n1` in this assay? false (0)

// return assay outcome for `CCOC(=O)c1ccccc1C(=O)OCC` false (0)

# outcome recorded in this test, key = `CCCCN(CC)C(=O)SCCC` false (0)
